Recorded measurements of Log 1/MIC, one per entry
- Test system: Mycobacterium 607
- test_details: Inhibition of Dihydropteroate synthase of Mycobacterium 607 and log (1/MIC) was reported
Lab note: jot the number down without any unit.

Query: Entry Nc1ccc(S(=O)(=O)c2ccc(Br)cc2)cc1 has what Log 1/MIC?
Reply: 3.59

Query: Entry Nc1ccc(S(=O)(=O)c2ccccc2N)cc1 has what Log 1/MIC?
Reply: 4.35

Query: Entry Nc1ccc(S(=O)(=O)c2ccc([N+](=O)[O-])cc2)cc1 has what Log 1/MIC?
Reply: 3.36

Query: Entry Nc1ccc(S(=O)(=O)c2ccc(NC=O)cc2)cc1 has what Log 1/MIC?
Reply: 4.74

Query: Entry COc1ccc(S(=O)(=O)c2ccc(N)cc2)cc1 has what Log 1/MIC?
Reply: 4.02

Query: Entry Nc1ccc(S(=O)(=O)c2cccc(N)c2)cc1 has what Log 1/MIC?
Reply: 4.62

Query: Entry Nc1ccc(S(=O)(=O)c2ccc(NO)cc2)cc1 has what Log 1/MIC?
Reply: 4.46

Query: Entry CCNc1ccc(S(=O)(=O)c2ccc(N)cc2)cc1 has what Log 1/MIC?
Reply: 4.26

Query: Entry Nc1ccc(S(=O)(=O)c2ccc(O)cc2)cc1 has what Log 1/MIC?
Reply: 5.96

Query: Entry Nc1ccc(S(=O)(=O)c2ccc(F)cc2)cc1 has what Log 1/MIC?
Reply: 3.5
